All figures here come from patent US9012433B2.

Entries and their IC50 at 24 h values follow.
- TEST_PROTOCOL: in vitro
- Assay type: cell-based
- PARTICULARS: Chinese hamster
- Protocol: Mammalian cell cytotoxicity was assessed to evaluate potential in vivo risks associated with the tetracycline compounds of the invention. A soluble, non-toxic redox dye (“Resazurin”; Alamar Blue) was used to assess a tetracycline compound's effect on cellular metabolism. […] Fluorescence measurements were taken (excitation 535 nm, emission 590 nm) and toxic effects in treated versus control cells were compared based on the degree of fluorescence in each well.

Sample answers from the record:
- SMILES_CODE: "CCO/N=C(\\C)c1cc(N)c(O)c2c1C[C@H]1C[C@H]3[C@H](N(C)C)C(O)=C(C(N)=O)C(=O)[C@@]3(O)C(O)=C1C2=O"
  IC50 at 24 h: "> 75 µg/mL"
- SMILES_CODE: "CC(C)ONCc1ccc(O)c2c1C[C@H]1C[C@H]3[C@H](N(C)C)C(O)=C(C(N)=O)C(=O)[C@@]3(O)C(O)=C1C2=O"
  IC50 at 24 h: "< 35 µg/mL"
- SMILES_CODE: "CN(C)[C@@H]1C(O)=C(C(N)=O)C(=O)[C@@]2(O)C(O)=C3C(=O)c4c(O)ccc(CN5CCCCO5)c4C[C@H]3C[C@@H]12"
  IC50 at 24 h: "35 to 75 µg/mL"

[in] Fill in the blank: the reported IC50 at 24 h of `C/C(=N\OC(C)(C)C)c1cc(N)c(O)c2c1C[C@H]1C[C@H]3[C@@H](N(C)C)C(O)=C(C(N)=O)C(=O)[C@@]3(O)C(O)=C1C2=O` is ____.
[out] < 35 µg/mL

[in] For `CCO/N=C(/C)c1ccc(O)c2c1C[C@H]1C[C@H]3[C@H](N(C)C)C(O)=C(C(N)=O)C(=O)[C@@]3(O)C(O)=C1C2=O` , what is its reported IC50 at 24 h?
[out] < 35 µg/mL

[in] # lookup: IC50 at 24 h of `CN(C)[C@@H]1C(O)=C(C(N)=O)C(=O)[C@@]2(O)C(O)=C3C(=O)c4c(O)ccc(CN5CCCO5)c4C[C@H]3C[C@@H]12`
[out] 35 to 75 µg/mL

###

- Test system: E. coli ATCC 25922
A collection of compounds and their measured MIC

Here are 3 compounds together with their reported answers.
- COMPOUND: "COC(=O)CONCc1ccc(O)c2c1C[C@H]1C[C@H]3[C@H](N(C)C)C(O)=C(C(N)=O)C(=O)[C@@]3(O)C(O)=C1C2=O [ED]"
  MIC: "4 to 8 µg/mL"
- COMPOUND: "CCO/N=C(/C)c1ccc(O)c2c1C[C@H]1C[C@H]3[C@H](N(C)C)C(O)=C(C(N)=O)C(=O)[C@@]3(O)C(O)=C1C2=O [A]"
  MIC: "< 4 µg/mL"
- COMPOUND: "CN(C)[C@@H]1C(O)=C(C(N)=O)C(=O)[C@@]2(O)C(O)=C3C(=O)c4c(O)ccc(-c5cnoc5)c4C[C@H]3C[C@@H]12 [K]"
  MIC: "< 4 µg/mL"

[in] Missing value: MIC, E. coli ATCC 25922, entry CCONCc1ccc(O)c2c1C[C@H]1C[C@H]3[C@@H](N(C)C)C(O)=C(C(N)=O)C(=O)[C@@]3(O)C(O)=C1C2=O [AM] . Fill in?
[out] > 8 µg/mL

[in] State its MIC on E. coli ATCC 25922: CN(C)[C@@H]1C(O)=C(C(N)=O)C(=O)[C@@]2(O)C(O)=C3C(=O)c4c(O)ccc(/C=N/n5cccc5)c4C[C@H]3C[C@@H]12 [AC]
[out] 4 to 8 µg/mL

[in] Requested read-out MIC, target or system E. coli ATCC 25922, entry CCONCc1ccc2c(c1O)C(=O)C1=C(O)[C@]3(O)C(=O)C(C(N)=O)=C(O)[C@@H](N(C)C)[C@@H]3C[C@@H]1C2 [GM]
[out] > 8 µg/mL
